- measurement_protocol: Viability Counterscreen for CMV-Luciferase Assay of Inhibitors of ATXN expression; further: nearly all actives have a fitted effect of over 55% in size
- condition_context: HEK-293 CMV-luciferase cells viability, protease fluorescence, 24 h
The whole screen tested about 2,100 compounds, of which about 320 (15%) were called active. Inconclusive results (about 52%) are left out. The call rests on the fitted dose curve; in most records, active means well fitted cell-killing curve with a large enough effect; inconclusive means small, poorly fitted or top-dose-only effect, or effect the other way; inactive means flat fitted curve, though single readings scatter. This is one part of the list.
Please answer using one outcome listed in TRUE for active, FALSE for inactive

Which outcome did this test record for the molecule O=C(Cn1cnc([N+](=O)[O-])c1)Nc1cc(Oc2ccc(Cl)cc2Cl)cc([N+](=O)[O-])c1 ? FALSE

Which outcome did this test record for the molecule Cc1cc(C(=O)CN2C(=O)c3ccccc3S2(=O)=O)c(C)n1C(C)C ? FALSE

Which outcome did this test record for the molecule C[C@@H]1CC=C[C@@H]2[C@H]1C(=O)N(Cc1ccccc1)[C@H]2c1ccccc1Br ? FALSE

Which outcome did this test record for the molecule CCc1noc(C)c1C(=O)N1CCSC1=Nc1cccc(Cl)c1C ? FALSE

Which outcome did this test record for the molecule CC(C(=O)c1ccc(-c2ccccc2)cc1)[n+]1cccc(NC(=O)c2ccccc2)c1 (configuration not stated) ? FALSE

Which outcome did this test record for the molecule Cc1cccc(/C=C/C(=O)c2ccc([N+](=O)[O-])o2)c1 ? TRUE

Which outcome did this test record for the molecule Cc1cccc(OCCn2cc(/C=N/NC(=O)c3ccncc3)c3ccccc32)c1 ? FALSE

Each recorded value in this set is attributed to PubChem BioAssay AID1745849.
